These measurements were taken from ChEMBL document CHEMBL1201862.

# Measurement protocol: viability of uninfected HEp-2 cells – cell-based, HTS, cytotoxicity control for RSV inhibitor project, dose response (AID 2410)
# Type: functional
# Condition label: human respiratory syncytial virus
Activity calls are given as the source filed them.
Endpoint name: CC50

# Record smiles, CC50
measured = [
    ("COc1cc(NC(=O)c2cccc(F)c2)ccc1NC(=O)c1cc2ccccc2o1", "> 50 µM (active)"),
    ("CC(C)N(C(=O)CSc1nc(COc2ccccc2)nc2ccccc12)C(C)C", "23.7 µM (active)"),
    ("Cc1ccccc1OCC(=O)NCCS(=O)(=O)N1CCN(c2ccc(F)cc2)CC1", "38.1 µM (active)"),
]

# input Endpoint output: CC50 of Cc1ccc(Cn2c(C)nc3c(c2=O)c2nc4ccccc4nc2n3Cc2ccco2)cc1 . Value?
# output 29 µM (active)

# input Endpoint output: CC50 of CCc1nc(NCCO)c(C#N)c2c1CCCC2 . Value?
# output 30.6 µM (active)

# input Endpoint output: CC50 of CCOC(=O)c1sc(NC(=O)c2ccc(S(=O)(=O)N3CCCCCC3)cc2)nc1-c1ccccc1 . Value?
# output 7.07 µM (active)

# input Endpoint output: CC50 of CCO[C@H]1OC(C(=O)NCc2ccccc2)=C[C@@H](c2ccc(Br)cc2)[C@@H]1CCCO . Value?
# output 22 µM (active)

====

# Target entity: Protein skinhead-1 (Caenorhabditis elegans, UniProt P34707)
# Sequence (P34707 whole entry): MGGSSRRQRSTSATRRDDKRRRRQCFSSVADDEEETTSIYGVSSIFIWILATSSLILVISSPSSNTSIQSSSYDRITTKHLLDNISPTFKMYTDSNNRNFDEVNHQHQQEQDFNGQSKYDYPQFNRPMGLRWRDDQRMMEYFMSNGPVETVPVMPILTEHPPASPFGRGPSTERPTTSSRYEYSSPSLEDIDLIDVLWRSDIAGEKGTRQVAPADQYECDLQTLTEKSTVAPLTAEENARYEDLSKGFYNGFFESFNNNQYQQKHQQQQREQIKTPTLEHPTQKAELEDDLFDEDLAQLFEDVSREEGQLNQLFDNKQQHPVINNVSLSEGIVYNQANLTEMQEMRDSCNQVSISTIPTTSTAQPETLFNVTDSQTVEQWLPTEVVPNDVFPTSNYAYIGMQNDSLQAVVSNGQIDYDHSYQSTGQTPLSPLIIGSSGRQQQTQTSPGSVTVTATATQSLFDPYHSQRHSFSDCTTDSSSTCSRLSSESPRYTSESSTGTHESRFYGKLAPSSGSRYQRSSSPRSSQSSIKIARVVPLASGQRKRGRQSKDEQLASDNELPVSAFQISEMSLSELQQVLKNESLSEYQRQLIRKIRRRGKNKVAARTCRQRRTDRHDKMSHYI
# Type: functional
Calls of active or inactive are those of the source.
Choose the fitting class; nothing outside active, inactive is accepted.

# count of solved cases: 6
# Compound, Label class
records = [
    ("O=C(Oc1ccccc1)N1CCN(c2ccc(F)cc2)CC1", "inactive"),
    ("CC(c1ccccc1)N1C(=O)c2cccnc2C1=O (configuration not stated)", "inactive"),
    ("O=C(Nc1nc2c(s1)CCc1ccccc1-2)c1ccco1", "inactive"),
    ("C=CCNc1ncnc2sc(SC)nc12", "inactive"),
    ("O=[N+]([O-])c1ccc(Nc2ccccc2)cc1", "active"),
    ("CCN(CC)S(=O)(=O)c1ccc(N(C)CCc2ccc(OC)c(OC)c2)nc1", "inactive"),
]

Next compound, please.
# input Name the outcome recorded for O=C(Nc1nccs1)c1ccc(-c2ccccc2[N+](=O)[O-])o1 in the assay.
# output inactive
